Here, each record is paired with measured Emax data.
SYSTEM TESTED: human MC3R (Homo sapiens)
Construct: expressed in transfected cells; host or cells: HEK293/CRE-luc/MC3R
Sequence (P41968 whole entry): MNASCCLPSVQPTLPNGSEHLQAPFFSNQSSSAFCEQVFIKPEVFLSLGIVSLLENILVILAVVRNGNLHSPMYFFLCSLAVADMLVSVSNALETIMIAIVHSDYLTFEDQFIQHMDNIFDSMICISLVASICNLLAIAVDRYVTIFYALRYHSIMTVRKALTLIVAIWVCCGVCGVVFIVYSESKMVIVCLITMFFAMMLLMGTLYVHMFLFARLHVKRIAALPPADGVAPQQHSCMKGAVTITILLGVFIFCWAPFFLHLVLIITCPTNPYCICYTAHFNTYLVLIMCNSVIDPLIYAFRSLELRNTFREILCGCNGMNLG
PROCEDURE TEXT: cAMP accumulation assay (HTRF), antagonist activity at MC3R
Format: cell-based
MEASUREMENT CONTEXT: HEK293/CRE-luc/MC3R; 0.1 nM to 1,000 nM; read-out: Max Activation %
Structures can show the parent of a compound that is named as a salt. Positions of bridges follow the written chain, without caps; N, C: chain ends. Non-standard residues stand in square brackets, D forms with d. Residues, ends and D or L forms follow the SMILES beside them. d2Nal = N[C@H](Cc1ccc2ccccc2c1)C(=O)O; Hyp = O=C(O)[C@@H]1C[C@@H](O)CN1; Nle = CCCC[C@H](N)C(=O)O
MEASUREMENT KIND: Emax (%)

{"COMPOUND": "CCCC[C@H](NC(C)=O)C(=O)N[C@H]1CC(=O)NCCCC[C@@H](C(=O)N[C@@H](C(=O)N2CCC[C@@H]2C(N)=O)C(C)C)NC(=O)[C@H](Cc2c[nH]c3ccccc23)NC(=O)[C@H](CCCN=C(N)N)NC(=O)[C@@H](Cc2ccc3ccccc3c2)NC(=O)[C@@H]2CCCN2C1=O [TCMCB07] (Ac-[Nle]DP[d2Nal]RWK[dV][dP]-NH2; lactam 2-7)", "MEASUREMENT KIND": "Emax", "ENDPOINT RESULT": 112}
{"COMPOUND": "CCCC[C@H](NC(C)=O)C(=O)N[C@H]1CC(=O)NCCCC[C@@H](C(=O)N[C@@H](C(=O)N2CCC[C@@H]2C(N)=O)C(C)C)NC(=O)[C@@H]2CCCN2C(=O)[C@H](Cc2c[nH]c3ccccc23)NC(=O)[C@H](CCCNC(=N)N)NC(=O)[C@@H](Cc2ccc3ccccc3c2)NC(=O)[C@@H]2C[C@@H](O)CN2C1=O [Peptide D4] (Ac-[Nle]D[Hyp][d2Nal]RWPK[dV][dP]-NH2; lactam 2-8)", "MEASUREMENT KIND": "Emax", "ENDPOINT RESULT": 50.1}
{"COMPOUND": "CCCC[C@@H]1NC(=O)[C@@H](NC(C)=O)CSSC[C@@H](C(N)=O)NC(=O)CNC(=O)[C@H](Cc2c[nH]c3ccccc23)NC(=O)[C@H](CCCNC(=N)N)NC(=O)[C@@H](Cc2ccc3ccccc3c2)NC(=O)[C@H](Cc2c[nH]cn2)NC(=O)[C@H](CCCNC(=N)N)NC1=O [HS024(TFA), reference compound] (Ac-C[Nle]RH[d2Nal]RWGC-NH2; disulfide 1-9 (inferred); N-terminus and C-terminus assumed)", "MEASUREMENT KIND": "Emax", "ENDPOINT RESULT": 102}
{"COMPOUND": "CCCC[C@H](NC(C)=O)C(=O)N[C@@H](CC(=O)O)C(=O)N1CCC[C@H]1C(=O)N[C@H](Cc1ccc2ccccc2c1)C(=O)N[C@@H](CCCNC(=N)N)C(=O)N[C@@H](Cc1c[nH]c2ccccc12)C(=O)N[C@@H](CCCCN)C(=O)N[C@@H](C(=O)N1CCC[C@@H]1C(N)=O)C(C)C [Peptide A1] (Ac-[Nle]DP[d2Nal]RWK[dV][dP]-NH2)", "MEASUREMENT KIND": "Emax", "ENDPOINT RESULT": 84.4}
{"COMPOUND": "CCCC[C@H](NC(C)=O)C(=O)N[C@H]1CC(=O)NCCCC[C@@H](C(=O)N2CCC[C@@H]2C(=O)N[C@@H](C(N)=O)C(C)C)NC(=O)[C@H](Cc2c[nH]c3ccccc23)NC(=O)[C@H](CCCNC(=N)N)NC(=O)[C@@H](Cc2ccc3ccccc3c2)NC(=O)[C@H](Cc2c[nH]cn2)NC(=O)[C@@H]2CCCN2C1=O [Peptide D5] (Ac-[Nle]DPH[d2Nal]RWK[dP][dV]-NH2; lactam 2-8)", "MEASUREMENT KIND": "Emax", "ENDPOINT RESULT": 24.6}
